Assayed System: PBP3 (Bacillus subtilis, UniProt P42971)
Sequence (P42971 whole entry): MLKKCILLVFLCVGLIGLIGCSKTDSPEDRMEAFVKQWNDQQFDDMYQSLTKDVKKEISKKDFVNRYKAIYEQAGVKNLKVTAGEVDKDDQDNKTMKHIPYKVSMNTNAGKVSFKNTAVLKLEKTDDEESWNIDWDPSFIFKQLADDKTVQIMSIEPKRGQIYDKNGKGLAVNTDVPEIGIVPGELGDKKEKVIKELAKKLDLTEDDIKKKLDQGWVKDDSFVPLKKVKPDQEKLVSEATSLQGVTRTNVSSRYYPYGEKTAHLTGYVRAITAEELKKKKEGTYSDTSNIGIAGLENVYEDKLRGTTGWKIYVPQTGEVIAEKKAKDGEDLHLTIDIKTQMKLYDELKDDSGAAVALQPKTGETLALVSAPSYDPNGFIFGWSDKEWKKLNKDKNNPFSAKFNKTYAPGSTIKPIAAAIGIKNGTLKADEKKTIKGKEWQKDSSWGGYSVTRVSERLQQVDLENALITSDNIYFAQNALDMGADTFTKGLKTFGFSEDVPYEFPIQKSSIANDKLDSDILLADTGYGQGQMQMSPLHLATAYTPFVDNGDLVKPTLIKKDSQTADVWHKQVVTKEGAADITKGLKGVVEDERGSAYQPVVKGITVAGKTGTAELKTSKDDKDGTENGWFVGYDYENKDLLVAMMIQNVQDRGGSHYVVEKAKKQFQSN
Procedure Details: Fluorescent whole cell β-lactam titration with Boc-FL readout, SDS-PAGE
Format: cell-based
Assay Setup: IC50 PBP3, B. subtilis PY79 whole cells; average of two experiments
pIC50: −log10 of the molar value.
Value Type: pIC50

>>> df
                               smiles_entry  qual  quantitative_result
0  NC(=O)c1cc[n+](CC2=C(C(=O)O)N3C(=O)[C@@H](NC(=O)[C@@H](c4ccccc4)S(=O)(=O)[O-])[C@H]3SC2)cc1     =                 3.58
1  CO/N=C(\C(=O)N[C@@H]1C(=O)N2C(C(=O)O)=C(COC(N)=O)CS[C@H]12)c1ccco1     =                 4.28
2  COc1cccc(OC)c1C(=O)N[C@@H]1C(=O)N2[C@@H]1SC(C)(C)[C@@H]2C(=O)O     =                 4.63
3  CC1(C)S[C@@H]2[C@H](N)C(=O)N2[C@H]1C(=O)O     <                 2.33
